system: male ICR and ddY mice; assay: Serum total cholesterol lowering effect in mice; assay type: in vivo, mouse; details: 0.01% in feed, 8 days, vs control
measure: Serum total cholesterol, % change (%)

• CC(/C=C/[C@@]1(C)[C@H](C)CCC(=O)[C@@H]1C)=C\Cc1c(O)c(C=O)c(C)c(Cl)c1OC(=O)c1cccnc1 = −13
• CC(/C=C/C1(C)C(C)C=CC(=O)C1C)=C\Cc1c(O)c(Cl)c(C)c(C=O)c1O (stereo not shown) = −10
• COc1c(C=O)c(C)c(Cl)c(O)c1CC=C(C)C=CC1(C)C(C)CCC(=O)C1C (stereo not shown) = −30
• CC(=O)Oc1c(Cl)c(C)c(C=O)c(O)c1CC=C(C)C=CC1(C)C(C)CCC(=O)C1C (stereo not shown) = −13
